Reference source: patent US6759420B1

- TARGET SYSTEM: factor Xa (Homo sapiens)
- Sequence (P00742 235-488 limits assumed): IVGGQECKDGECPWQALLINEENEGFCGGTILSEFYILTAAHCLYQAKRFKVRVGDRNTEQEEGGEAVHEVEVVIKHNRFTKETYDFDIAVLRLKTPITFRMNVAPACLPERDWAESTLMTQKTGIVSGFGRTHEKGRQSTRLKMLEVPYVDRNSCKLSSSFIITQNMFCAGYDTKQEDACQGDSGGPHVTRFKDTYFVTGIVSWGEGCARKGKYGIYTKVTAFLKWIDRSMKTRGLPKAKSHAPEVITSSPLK
- Sequence (P00742 41-179 limits assumed): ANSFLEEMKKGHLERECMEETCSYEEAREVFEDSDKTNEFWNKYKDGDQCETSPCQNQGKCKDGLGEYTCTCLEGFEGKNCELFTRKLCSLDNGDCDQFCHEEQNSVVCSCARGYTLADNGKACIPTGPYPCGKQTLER
- ASSAY NOTES: Factor Xa assay (Test 1a), chromogenic
- Type: biochemical
- Set-up: purchased Enzyme Research Laboratories, Inc; South Bend, Ind
- TEST SETTINGS: in vitro factor Xa assay Test 1a; human factor Xa 0.5 nM, substrate S-2765 140 μM, 25° C.; Ki from IC50 corrected for substrate competition
pKi: −log10 of the molar value. Counter-ions that a name gives are not always drawn.
# pKi binned as bin A (below 7), bin B (7 to below 8), bin C (8 or more)

COc1ccc(CNC(=O)C(CCCNC(=N)N)NC(=O)C(NC(=O)C(Cc2ccc(C(=N)N)cc2)C2CCCCC2)C2CCCCC2)cc1 (centres unmarked) | bin B
N=C(N)c1ccc(CC(C(=O)NC(C(=O)NCC2CCN(C(=N)N)CC2)C2CCCCC2)c2cccc(Cl)c2)cc1 (single isomer, unassigned; less polar) | bin C
Cc1ccc(C(Cc2ccc(C(=N)N)cc2)C(=O)NC(C(=O)NCc2ccc(C(=N)N)cc2)C2CCCCC2)cc1 (single isomer, unassigned; less polar) [Example 154] | bin A
N=C(N)NCCC[C@H](NC(=O)[C@@H](NC(=O)C(Cc1ccc(C(=N)N)cc1)c1ccc2ccccc2c1)C1CCCCC1)C(=O)O (mixture of isomers) [Example 79, trifluoroacetic acid salt] | bin B
C[n+]1ccc(CNC(=O)[C@@H](NC(=O)C(Cc2ccc(C(=N)N)cc2)c2ccccc2)C2CCCCC2)cc1 (single isomer, unassigned; less polar) | bin A
N=C(N)NCCC[C@H](NC(=O)[C@@H](NC(=O)C(Cc1ccc(C(=N)N)cc1)c1cccnc1)c1ccccc1)C(N)=O (mixture of isomers) [Example 66, trifluoroacetic acid salt] | bin C
N=C(N)NCCCC(NC(=O)C(NC(=O)C(Cc1ccc(C(=N)N)cc1)c1cccc(Cl)c1)C1CCCCC1)C(N)=O (single isomer, unassigned; less polar) [Example 124] | bin C
N=C(N)NCCC[C@H](NC(=O)C(NC(=O)C(Cc1ccc(C(=N)N)cc1)C1CCCCC1)C1CCCCC1)C(=O)NCc1ccccc1 (some centres unmarked) [Example 196, trifluoroacetic acid salt] | bin B
N=C(N)c1ccc(CNC(=O)[C@@H](NC(=O)C(Cc2ccc(CN)cc2)C2CCCCC2)C2CCCCC2)cc1 (mixture of isomers) [Example 138, acetic acid salt] | bin B
N=C(N)c1ccc(CNC(=O)C(NC(=O)C(Cc2ccc(C(=N)N)cc2)c2cccc(F)c2)C2CCCCC2)cc1 (single isomer, unassigned; less polar) | bin B
CC(Cc1ccc(C(=N)N)cc1)(C(=O)N[C@@H](CC1CCCCC1)C(=O)N[C@@H](CCCNC(=N)N)C(N)=O)c1ccccc1 (mixture of isomers) [Example 100, trifluoroacetic acid salt] | bin A
CC(=N)N1CCC(CNC(=O)C(NC(=O)C(Cc2ccc(C(=N)N)cc2)C2CCCCC2)C2CCCCC2)CC1 (single isomer, unassigned; less polar) | bin C
CN(Cc1ccccc1)C(=O)[C@H](CCCNC(=N)N)NC(=O)C(NC(=O)C(Cc1ccc(C(=N)N)cc1)C1CCCCC1)C1CCCCC1 (single isomer, unassigned; less polar) | bin B
CCCOC(=O)C(CCCNC(=N)N)NC(=O)C(NC(=O)C(Cc1ccc(C(=N)N)cc1)C1CCCCC1)C1CCCCC1 (single isomer, unassigned; less polar) | bin B
N=C(N)c1ccc(CC(C(=O)N[C@H](C(=O)NCC2CCC(C(=N)N)CC2)C2CCCCC2)c2cccc(Br)c2)cc1 (single isomer, unassigned; less polar) | bin C
N=C(N)c1ccc(CC(C(=O)N[C@H](C(=O)NCC2CCN(C(=N)N)CC2)C2CCCCC2)c2ccccc2Br)cc1 (single isomer, unassigned; less polar) | bin C
